# Test system: SK-OV-3 ovarian
# Assay Summary: NCI tumour cell line growth inhibition, 48 h
Documented GI50 across a set of compounds

INSERT INTO results (compound, readout_value) VALUES
  ('CCN(CC)CCN(CC)CC.CCN(CC)CCN(CC)CC.[Cu+2].[Cu+2].[O-][Cl+3]([O-])([O-])[O-].[OH3+].[OH3+]', '13.9 µM'),
  ('COc1ccc2c(c1)c(-c1nc(-c3cn(C)c4ccncc34)cs1)cn2C', '2.52 µM'),
  ('COc1ccc2c(c1)CCC1C2CC[C@@]2(C)C1CC[C@@H]2NC(=O)Cc1ccc(O)c(O)c1 (some centres undefined)', '16.7 µM'),
  ('NC(=S)N/N=C/c1ccc(OC(=O)COc2cc(Cl)c(Cl)cc2Cl)cn1', '8.49 µM'),
  ('CSc1cc([C@@H]2C[C@H]2c2ccc(Cl)cc2)on1', '50.6 µM');

Exercise: Answer with the recorded GI50 for the compound listed here: CC1(C)N=C(N)N=C(N)N1c1ccc(CNC(=O)Nc2ccc(S(=O)(=O)F)c(Cl)c2)c(Cl)c1
Key: > 45 µM
